molecular target: human CGT (ceramide galactosyltransferase), CHO/CGT lysate (Homo sapiens, UniProt Q16880); construct: Full-length human CGT cDNA was cloned into the BamH1/Xho1 site of pcDNA3.1 (+); expressed in transfected cells; host or cells: Chinese hamster ovary (CHO) cells; lysate prepared with M-PER; experiment: CGT enzyme assay, RapidFire/MS/MS readout (Table 1 ranges with one asterisk *); assay type: biochemical; details: RapidFire method (range with one asterisk *)
Counter-ions that a name gives are not always drawn.
# IC50 per entry

{"compound": "N[C@H]1CCN(C(=O)[C@@H](NS(=O)(=O)c2ccc3cc(OC4CCCC4)ccc3c2)C(F)(F)c2ccc(Br)cc2)C1", "system": "human CGT (ceramide galactosyltransferase), CHO/CGT lysate (Homo sapiens, UniProt Q16880)", "IC50": "1 to 10 µM"}
{"compound": "CN([C@H](C(=O)N1C2CCC1CC(N)C2)C(F)(F)c1ccc(OCCN2CCCCC2)cc1)S(=O)(=O)c1ccc2cc(OC3CCCC3)ccc2c1 (some centres unmarked)", "system": "human CGT (ceramide galactosyltransferase), CHO/CGT lysate (Homo sapiens, UniProt Q16880)", "IC50": "30 to 100 µM"}
{"compound": "CC(C)Oc1ccc2cc(S(=O)(=O)N[C@H](C(=O)N3C4CCC3CC(N)C4)C(F)(F)c3ccc(-c4ccccc4)cc3)ccc2c1 (some centres unmarked) [Compound 31-1, trifluoroacetate]", "system": "human CGT (ceramide galactosyltransferase), CHO/CGT lysate (Homo sapiens, UniProt Q16880)", "IC50": "1 to 10 µM"}
{"compound": "NC1CCN(C(=O)[C@H](NS(=O)(=O)c2ccc(OCC3CCCCC3)cc2)C(F)(F)c2ccc(-c3ccc(Cl)cc3)cc2)CC1", "system": "human CGT (ceramide galactosyltransferase), CHO/CGT lysate (Homo sapiens, UniProt Q16880)", "IC50": "30 to 100 µM"}
{"compound": "NC1CC2CCC(C1)N2C(=O)[C@H](NS(=O)(=O)c1ccc(OCC2CCCCC2)cc1)C(F)(F)c1ccc2cc(Br)ccc2c1 (some centres unmarked) [Compound 40-2, trifluoroacetate]", "system": "human CGT (ceramide galactosyltransferase), CHO/CGT lysate (Homo sapiens, UniProt Q16880)", "IC50": "10 to 30 µM"}
{"compound": "NC1CC2CCC(C1)N2C(=O)[C@H](NS(=O)(=O)c1ccc2cc(OC3CCCC3)ccc2c1)C(F)(F)c1ccc(I)cc1 (some centres unmarked)", "system": "human CGT (ceramide galactosyltransferase), CHO/CGT lysate (Homo sapiens, UniProt Q16880)", "IC50": "1 to 10 µM"}
{"compound": "NC1CC2CCC(C1)N2C(=O)[C@@H](NS(=O)(=O)c1ccc2c(cnn2CC2CCCC2)c1)C(F)(F)c1ccc(Br)cc1 (some centres unmarked)", "system": "human CGT (ceramide galactosyltransferase), CHO/CGT lysate (Homo sapiens, UniProt Q16880)", "IC50": "1 to 10 µM"}
{"compound": "CN([C@H](C(=O)N1C2CCC1CC(N)C2)C(F)(F)c1ccc(OCCN2CCOCC2)cc1)S(=O)(=O)c1ccc2cc(OC3CCCC3)ccc2c1 (some centres unmarked)", "system": "human CGT (ceramide galactosyltransferase), CHO/CGT lysate (Homo sapiens, UniProt Q16880)", "IC50": "1 to 10 µM"}
{"compound": "NC1CC2CCC(C1)N2C(=O)[C@H](NS(=O)(=O)c1ccc(OCC2CCCC2)cc1)C(F)(F)c1ccc2cc(Br)ccc2c1 (some centres unmarked) [Compound 39-2, trifluoroacetate]", "system": "human CGT (ceramide galactosyltransferase), CHO/CGT lysate (Homo sapiens, UniProt Q16880)", "IC50": "10 to 30 µM"}
{"compound": "CC(C)N([C@H](C(=O)N1C2CCC1CC(N)C2)C(F)(F)c1ccc(Br)cc1)S(=O)(=O)c1ccc2cc(OC3CCCC3)ccc2c1 (some centres unmarked)", "system": "human CGT (ceramide galactosyltransferase), CHO/CGT lysate (Homo sapiens, UniProt Q16880)", "IC50": "10 to 30 µM"}
{"compound": "COc1cc(C(F)(F)[C@H](NS(=O)(=O)c2ccc(OCC3CCCCC3)cc2)C(=O)N2C3CCC2CC(N)C3)ccc1Cl (some centres unmarked)", "system": "human CGT (ceramide galactosyltransferase), CHO/CGT lysate (Homo sapiens, UniProt Q16880)", "IC50": "< 1 µM"}
{"compound": "NC1CC2CCC(C1)N2C(=O)[C@H](NS(=O)(=O)c1ccc2cc(OC3CCCC3)ccc2c1)C(F)(F)c1ccc(-c2ccccc2)cc1 (some centres unmarked) [Compound 36-2, trifluoroacetate]", "system": "human CGT (ceramide galactosyltransferase), CHO/CGT lysate (Homo sapiens, UniProt Q16880)", "IC50": "1 to 10 µM"}
{"compound": "CN([C@H](C(=O)N1C2CCC1CC(N)C2)C(F)(F)c1ccc(Br)cc1)S(=O)(=O)c1ccc2c(cnn2CC2CCCC2)c1 (some centres unmarked)", "system": "human CGT (ceramide galactosyltransferase), CHO/CGT lysate (Homo sapiens, UniProt Q16880)", "IC50": "1 to 10 µM"}
{"compound": "COc1cc(C(F)(F)[C@@H](NS(=O)(=O)c2ccc3cc(OC4CCCC4)ccc3c2)C(=O)N2C3CCC2CC(N)C3)ccc1Br (some centres unmarked)", "system": "human CGT (ceramide galactosyltransferase), CHO/CGT lysate (Homo sapiens, UniProt Q16880)", "IC50": "1 to 10 µM"}
{"compound": "COc1cc(C(F)(F)[C@@H](NS(=O)(=O)c2ccc3cc(OC4CCCC4)ccc3c2)C(=O)N2C3CCC2CC(N)C3)ccc1Cl (single isomer, unassigned)", "system": "human CGT (ceramide galactosyltransferase), CHO/CGT lysate (Homo sapiens, UniProt Q16880)", "IC50": "1 to 10 µM"}
{"compound": "COc1ccc(C(F)(F)[C@H](NS(=O)(=O)c2ccc3cc(OC4CCCC4)ccc3c2)C(=O)N2C3CCC2CC(N)C3)cc1 (some centres unmarked)", "system": "human CGT (ceramide galactosyltransferase), CHO/CGT lysate (Homo sapiens, UniProt Q16880)", "IC50": "10 to 30 µM"}
{"compound": "NC1CC2CCC(C1)N2C(=O)[C@H](NS(=O)(=O)c1ccc2cc(OC3CCCC3)ccc2c1)C(F)(F)c1ccc(-c2ccc(F)cc2)cc1 (some centres unmarked) [Compound 56-2, trifluoroacetate]", "system": "human CGT (ceramide galactosyltransferase), CHO/CGT lysate (Homo sapiens, UniProt Q16880)", "IC50": "1 to 10 µM"}
{"compound": "NC1CCN(C(=O)[C@H](NS(=O)(=O)c2ccc3cc(OC4CCCC4)ccc3c2)C(F)(F)c2ccc(-c3ccc(Cl)s3)cc2)CC1 [Compound 112-2, trifluoroacetate]", "system": "human CGT (ceramide galactosyltransferase), CHO/CGT lysate (Homo sapiens, UniProt Q16880)", "IC50": "1 to 10 µM"}
{"compound": "NC1CC2CCC(C1)N2C(=O)[C@H](NS(=O)(=O)c1ccc2cc(OC3CCC3)ccc2c1)C(F)(F)c1ccc(Br)cc1 (some centres unmarked)", "system": "human CGT (ceramide galactosyltransferase), CHO/CGT lysate (Homo sapiens, UniProt Q16880)", "IC50": "10 to 30 µM"}
{"compound": "NC1CC2CCC(C1)N2C(=O)[C@H](NS(=O)(=O)c1ccc2cc(OC3CCCC3)ccc2c1)C(F)(F)c1ccc(-c2ccc(Cl)s2)cc1 (some centres unmarked)", "system": "human CGT (ceramide galactosyltransferase), CHO/CGT lysate (Homo sapiens, UniProt Q16880)", "IC50": "1 to 10 µM"}
{"compound": "NC1CC2CCC(C1)N2C(=O)[C@H](NS(=O)(=O)c1ccc2c(cnn2CC2CCCC2)c1)C(F)(F)c1ccc(C(F)(F)F)cc1 (some centres unmarked)", "system": "human CGT (ceramide galactosyltransferase), CHO/CGT lysate (Homo sapiens, UniProt Q16880)", "IC50": "10 to 30 µM"}
{"compound": "NC1CC2CCC(C1)N2C(=O)[C@H](NS(=O)(=O)c1ccc(OCC2CCCCC2)cc1)C(F)(F)c1ccc(Oc2ccccc2)cc1 (some centres unmarked)", "system": "human CGT (ceramide galactosyltransferase), CHO/CGT lysate (Homo sapiens, UniProt Q16880)", "IC50": "10 to 30 µM"}
{"compound": "NC1CC2CCC(C1)N2C(=O)[C@@H](NS(=O)(=O)c1ccc2cc(OC3CCCC3)ccc2c1)C(F)(F)c1ccc(Cl)cc1 (some centres unmarked) [Compound 28-1, trifluoroacetate]", "system": "human CGT (ceramide galactosyltransferase), CHO/CGT lysate (Homo sapiens, UniProt Q16880)", "IC50": "< 1 µM"}

###

# IC50 annotations
Biological target: human CGT (ceramide galactosyltransferase), CHO/CGT lysate (Homo sapiens)
Construct: Full-length human CGT cDNA was cloned into the BamH1/Xho1 site of pcDNA3.1 (+); expressed in transfected cells; host or cells: Chinese hamster ovary (CHO) cells; lysate prepared with M-PER
Sequence (Q16880 21-541): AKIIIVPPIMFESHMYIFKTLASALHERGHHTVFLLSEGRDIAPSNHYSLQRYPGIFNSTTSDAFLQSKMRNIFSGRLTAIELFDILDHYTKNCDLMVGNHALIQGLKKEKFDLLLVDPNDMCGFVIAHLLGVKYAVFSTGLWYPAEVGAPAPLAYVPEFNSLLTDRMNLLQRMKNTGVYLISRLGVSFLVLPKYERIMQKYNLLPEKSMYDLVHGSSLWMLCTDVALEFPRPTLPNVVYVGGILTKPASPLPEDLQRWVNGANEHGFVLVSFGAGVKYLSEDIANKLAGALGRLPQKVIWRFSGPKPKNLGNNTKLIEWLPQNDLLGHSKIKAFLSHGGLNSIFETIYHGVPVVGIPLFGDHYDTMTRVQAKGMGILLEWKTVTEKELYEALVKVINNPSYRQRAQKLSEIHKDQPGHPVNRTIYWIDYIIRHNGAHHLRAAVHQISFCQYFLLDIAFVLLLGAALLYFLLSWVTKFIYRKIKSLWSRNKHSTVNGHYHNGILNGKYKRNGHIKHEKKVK
Experiment: CGT enzyme assay, RapidFire/MS/MS readout (Table 1 ranges with one asterisk *)
Assay type: biochemical
Conditions: RapidFire method (range with one asterisk *)
Counter-ions that a name gives are not always drawn.

{"molecule": "NC1CCN(C(=O)[C@@H](NS(=O)(=O)c2ccc3cc(OC4CCCC4)ccc3c2)C(F)(F)c2ccc(OC3CCCCC3)cc2)CC1", "IC50": "1 to 10 µM"}
{"molecule": "NC1CC2CCC(C1)N2C(=O)[C@H](NS(=O)(=O)c1ccc2cc(OC3CCCC3)ccc2c1)C(F)(F)c1ccc(Cl)cc1 (stereo partly drawn) [Compound 28-2, trifluoroacetate]", "IC50": "1 to 10 µM"}
{"molecule": "NC1CCN(C(=O)[C@H](NS(=O)(=O)c2ccc3cc(OC4CCCC4)ccc3c2)C(F)(F)c2cccc(Oc3ccccc3)c2)CC1", "IC50": "1 to 10 µM"}
{"molecule": "COc1cc(C(F)(F)[C@@H](NS(=O)(=O)c2ccc(OCC3CCCCC3)cc2)C(=O)N2CCC(N)CC2)ccc1Cl", "IC50": "10 to 30 µM"}
{"molecule": "NC1CC2CCC(C1)N2C(=O)[C@@H](NS(=O)(=O)c1ccc2cc(OC3CCC3)ccc2c1)C(F)(F)c1ccc(Br)cc1 (stereo partly drawn)", "IC50": "1 to 10 µM"}
{"molecule": "NC1CC2CCC(C1)N2C(=O)[C@H](NS(=O)(=O)c1ccc2cc(OC3CCCC3)ccc2c1)C(F)(F)c1ccc(OC2CCCCC2)cc1 (stereo partly drawn)", "IC50": "1 to 10 µM"}
